Data origin, for the record: ChEMBL document CHEMBL3397016

target: Peroxisome proliferator-activated receptor gamma (Homo sapiens) (UniProt P37231); assay: Activation of human PPARgamma ligand binding domain expressed in COS7 cells by dual luciferase reporter gene assay relative to 1 uM pioglitazone; format: cell-based; conditions: COS-7
Sequence (P37231 whole entry, the tested form may be a part): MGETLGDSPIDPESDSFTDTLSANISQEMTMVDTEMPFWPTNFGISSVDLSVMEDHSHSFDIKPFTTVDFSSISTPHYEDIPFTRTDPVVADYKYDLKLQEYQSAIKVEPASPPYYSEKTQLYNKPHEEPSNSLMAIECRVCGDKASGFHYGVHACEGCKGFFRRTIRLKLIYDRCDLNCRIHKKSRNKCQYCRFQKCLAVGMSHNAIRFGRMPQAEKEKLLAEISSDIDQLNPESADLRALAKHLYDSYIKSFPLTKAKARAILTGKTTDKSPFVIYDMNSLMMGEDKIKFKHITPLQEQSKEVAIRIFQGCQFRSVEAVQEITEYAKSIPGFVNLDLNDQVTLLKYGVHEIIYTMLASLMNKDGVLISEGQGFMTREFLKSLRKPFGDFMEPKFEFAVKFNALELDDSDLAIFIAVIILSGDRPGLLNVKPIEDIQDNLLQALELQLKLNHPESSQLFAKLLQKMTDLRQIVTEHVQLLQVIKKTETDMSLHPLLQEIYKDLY
Each item that follows carries a reported max activation.
MEASURE: max activation

COMPOUND: CCCC/C(=C\c1cc(OCC(c2ccccc2)c2ccccc2)ccc1OCc1ccc(C(F)(F)F)cc1)C(=O)O
RESULT: 97%
//
COMPOUND: CCCC/C(=C\c1cc(OCc2ccc(F)cc2)ccc1OCc1ccc(C(F)(F)F)cc1)C(=O)O
RESULT: 76%
//
COMPOUND: CCCCC(Sc1nc(OCCc2ccccc2)cc(OCCc2ccccc2)n1)C(=O)O (stereo unspecified)
RESULT: 61%
//
COMPOUND: CCCC/C(=C\c1cc(OC/C=C/c2ccccc2)ccc1OCc1ccc(C(F)(F)F)cc1)C(=O)O
RESULT: 56%
//
COMPOUND: CCCCC(Sc1nc(OCCC2CCCCC2)cc(OCCC2CCCCC2)n1)C(=O)O (stereo unspecified)
RESULT: 71%
//
COMPOUND: CCCC/C(=C\c1cc(OCc2ccc(Cl)c(Cl)c2)ccc1OCc1ccc(C(F)(F)F)cc1)C(=O)O
RESULT: 56%
